Method Notes: physchem
Experimental Conditions: organic solvent or mixture, Mean Drug Solubility (± standard deviation), HFA 152a
Quantity: solubility

QUERY: Item CN1CCC[C@H]1c1cccnc1 has what recorded solubility?
RESULT: 0.0508 mg/mL

---

Method Notes: physchem
Experimental Conditions: organic solvent or mixture, Mean Drug Solubility (± standard deviation), 50:50 HFA 134a/HFA 152a
Quantity: solubility (µg/mL)
Your answer is read as µg/mL, so omit the unit and give the number.

QUERY: Item CN1CCC[C@H]1c1cccnc1 [Nicotine, L-Nicotine] has what recorded solubility?
RESULT: 85.8
